- Tested on: DR2
- test: Parasite growth inhibition assay, DR2
- Assay type: cell-based
- details: Plasmodium falciparum, Exp 1; read-out: EC50 (Fig. 1e)
propertyMeasured: pEC50
Friendly reminder that pEC50 comes from taking -log10 of the concentration in mol/L.

Q: Looking for the measured pEC50 of C[C@H]1[C@@H](O)O[C@@H]2O[C@@]3(C)CC[C@H]4[C@H](C)CC[C@@H]1[C@@]24OO3 [DHA, dihydroartemisinin] , can you help?
Ans: 7.97
